testedSystem: T1, CD226 (human) (UniProt Q15762)
T1 sequence: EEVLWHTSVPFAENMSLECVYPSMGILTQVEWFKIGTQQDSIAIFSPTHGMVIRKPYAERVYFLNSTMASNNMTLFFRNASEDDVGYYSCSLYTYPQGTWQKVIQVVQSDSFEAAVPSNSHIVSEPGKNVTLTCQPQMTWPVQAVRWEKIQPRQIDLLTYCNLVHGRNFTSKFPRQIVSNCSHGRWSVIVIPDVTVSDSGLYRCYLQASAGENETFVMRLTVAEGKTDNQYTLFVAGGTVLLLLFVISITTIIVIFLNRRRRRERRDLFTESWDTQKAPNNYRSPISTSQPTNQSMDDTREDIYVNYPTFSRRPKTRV
assayComment: flow cytometry, CD226-expressing cells
metric: Fold Change from CD155-ECD
Express the reported value numerically, then name its unit.

Record CD155 variant IgV-Fc P18C, T26M, L44V, M55I, Q62K, L79P, F91S, L104M, T107M (Fc fusion, not shown: a dimerising Fc or GST; small tags and cut ends) WPPPGTGDVVVQAPTQVCGFLGDSVMLPCYLQVPNMEVTHVSQVTWARHGESGSIAVFHQTKGPSYSESKRLEFVAARPGAELRNASLRMSGLRVEDEGNYTCMFVMFPQGSRSVDIWL . Reported Fold Change from CD155-ECD: 0.06 fold

binder CD155 variant IgV-Fc V9L, P18L, L79P, M90I, F91S, T102S, L104M, G111R (Fc fusion, not shown: a dimerising Fc or GST; small tags and cut ends) WPPPGTGDLVVQAPTQVLGFLGDSVTLPCYLQVPNMEVTHVSQLTWARHGESGSMAVFHQTQGPSYSESKRLEFVAARPGAELRNASLRISGLRVEDEGNYSCMFVTFPQRSRSVDIWL , Fold Change from CD155-ECD observed: 0.06 fold

Recorded Fold Change from CD155-ECD (binder CD155 variant IgV-Fc P18F, S65A, S67V, F91S, L104M, G111R (Fc fusion, not shown: a dimerising Fc or GST; small tags and cut ends) WPPPGTGDVVVQAPTQVFGFLGDSVTLPCYLQVPNMEVTHVSQLTWARHGESGSMAVFHQTQGPAYVESKRLEFVAARLGAELRNASLRMSGLRVEDEGNYTCMFVTFPQRSRSVDIWL ): 0.06 fold

# Fold Change from CD155-ECD of CD155 variant IgV-Fc P18L, K70E, L79P, F91S, V95A, G111R (Fc fusion, not shown: a dimerising Fc or GST; small tags and cut ends) WPPPGTGDVVVQAPTQVLGFLGDSVTLPCYLQVPNMEVTHVSQLTWARHGESGSMAVFHQTQGPSYSESERLEFVAARPGAELRNASLRMSGLRAEDEGNYTCLFVTFPQRSRSVDIWL = 0.07 fold

The measured Fold Change from CD155-ECD associated with CD155 variant IgV-Fc V9I, P18T, D23G, L79P, F91S, G111R (Fc fusion, not shown: a dimerising Fc or GST; small tags and cut ends) WPPPGTGDIVVQAPTQVTGFLGGSVTLPCYLQVPNMEVTHVSQLTWARHGESGSMAVFHQTQGPSYSESKRLEFVAARPGAELRNASLRMSGLRVEDEGNYTCLFVTFPQRSRSVDIWL reads 0.06 fold

Lab note: CD155 variant IgV-Fc V9I, V10I, P18S, F20S, T45A, L79P, F91S, L104M, F108Y, G111R, S112V (Fc fusion, not shown: a dimerising Fc or GST; small tags and cut ends) WPPPGTGDIIVQAPTQVSGSLGDSVTLPCYLQVPNMEVTHVSQLAWARHGESGSMAVFHQTQGPSYSESKRLEFVAARPGAELRNASLRMSGLRVEDEGNYTCMFVTYPQRVRSVDIWL gave Fold Change from CD155-ECD of 0.06 fold
